Data origin: patent US20120277143A1

Please provide measured Kd for the entries that follow.
# TARGET OR SYSTEM: T1, human IL13 (human, UniProt P35225 35-146, biotinylated in the SPR assays (sites not given))
# T1 construct: Peprotech; also called hIL13; recombinant human IL13
# T1 sequence (P35225 other isoform, or with tags, fused parts or gaps limits assumed): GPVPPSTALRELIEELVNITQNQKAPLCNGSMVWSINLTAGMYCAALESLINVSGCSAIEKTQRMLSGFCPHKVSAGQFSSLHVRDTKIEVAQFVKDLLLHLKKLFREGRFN
# ASSAY PROCEDURE: SPR BIAcore, biotin-IL13 on SA chip, global fit

Request: Given the entry 9F8 (designed binder, ankyrin repeat protein) DLGKKLLEAARAGQDDEVRILMANGADVNASDIFGSTPLHLAARHGHLEIVEVLLKYGADVNAMDFIGDTPLHLAAYRGHLEIVEVLLKYGVDVNADDHGDTPLHLAASMGHLEIVEVLLKNGADVNAQDKFGKTAFDISIDNGNEDLAEILQKLN , report its measured Kd.
Response: 0.11 nM

Request: Entry 10A6 (designed binder, N-Cap-(AR)2-C-Cap, only 2 ARs) DLGKKLLEAARAGQDDEVRILMANGADVNAIDHFDSTPLHLAARHGHLEIVEVLLKNGADVNADDFLGDTPLHLAAYHGHLDIVEVLLKHGADVNAQDKFGKTAFDISIDNGNEDLAEILQKLN please
Response: 0.0729 nM

Request: And 5B9 (designed binder, N-Cap-(AR)3-C-Cap) DLGKKLLEAARAGQDDEVRILMANGADVNATDVFGSTPLHLAARHGHLEIVEVLLKHGADVNATDFIGDTPLHLAAYHGHLEIVEVLLKHGADVNAKNGETPLHLAAYHGHPDIVEVLLKHGADVNAQDKFGKTAFDISIDNGNEDLAEILQKLN ?
Response: 0.169 nM

Request: Entry 7C6 (designed binder, N-Cap-(AR)3-C-Cap) DLGKKLLEAARAGQDDEVRILMANGADVNAMDKYGSTPLHLAARSGHLEIVEVLLKHGADVNATDFIGDTPLHLAAYHGHLEIVEVLLKHGADVNAEDITGETPLHLAAESGHLEIVEVLLKHGADVNAQDKFGKTAFDISIDNGNEDLAEILQKLN please
Response: 0.0464 nM
